Measured IC50 of individual entries
target: human recombinant FGFR2 catalytic domain protein (amino acid 400-821) (Homo sapiens (Human), UniProt P21802); assay: FGFR2 activity inhibition test (HTRF kinase assay); conditions: 50 μM ATP
Sequence (P21802 400-821): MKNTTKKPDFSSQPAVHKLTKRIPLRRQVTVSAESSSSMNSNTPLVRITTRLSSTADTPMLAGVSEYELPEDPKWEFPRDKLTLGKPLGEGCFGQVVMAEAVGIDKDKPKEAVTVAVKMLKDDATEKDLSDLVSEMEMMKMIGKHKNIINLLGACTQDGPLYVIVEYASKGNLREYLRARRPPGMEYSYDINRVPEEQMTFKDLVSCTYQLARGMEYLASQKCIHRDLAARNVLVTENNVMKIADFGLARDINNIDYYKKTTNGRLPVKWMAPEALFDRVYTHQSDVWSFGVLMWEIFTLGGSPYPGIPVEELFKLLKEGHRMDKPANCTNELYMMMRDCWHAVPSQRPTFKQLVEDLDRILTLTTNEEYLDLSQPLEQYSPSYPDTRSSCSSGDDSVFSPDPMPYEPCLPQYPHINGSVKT

# example entries with known answers
C=CC(=O)N1CC[C@H](n2cc(C(N)=O)c(C#Cc3cc(OC)cc(OC)c3)n2)C1 = 10 to 100 nM
C=CC(=O)N1CC[C@H](n2nc(C#Cc3cc(Cl)ccc3F)c(C(N)=O)c2NC)C1 = < 10 nM
C=CC(=O)N1CC[C@H](n2nc(C#Cc3cc(OC)cc(OC)c3)c(C(N)=O)c2NCC2CC2)C1 = < 10 nM

Input: Provide one value: measured IC50 of `C=CC(=O)N1CC[C@@H](n2nc(C#Cc3cc(OC)cc(OC)c3)c(C(N)=O)c2N)C1`
Output: < 10 nM

Input: Provide one value: measured IC50 of `C=CC(=O)N1CC[C@H](n2nc(C#Cc3cc(OC)cc(OC)c3F)c(C(N)=O)c2NC)C1`
Output: < 10 nM

Input: Provide one value: measured IC50 of `C=CC(=O)N1CC[C@H](n2nc(C#Cc3cc(OC)cc(OC)c3)c(C(N)=O)c2NCCN2CCOCC2)C1`
Output: < 10 nM
